IC50 values for the compounds below.
# experimental_system: GABA-A receptor; anion channel
# protocol: In vitro inhibition of [35S]TBPS binding to Gamma-aminobutyric acid A receptor in rat brain cortical membranes in the presence of 5 uM GABA (low affinity)
# Type: cell membranes, Membrane
reported_endpoint: IC50

item_smiles | observed_result
CC(=O)[C@H]1CC[C@H]2[C@@H]3CC[C@@H]4C[C@@](O)(C#Cc5ccc(N)cc5)CC[C@]4(C)[C@H]3CC[C@]12C | 11.8 µM
CC(=O)c1cccc(C#C[C@@]2(O)CC[C@@]3(C)[C@H](CC[C@@H]4[C@@H]3CC[C@]3(C)[C@@H](C(C)=O)CC[C@@H]43)C2)c1 | 1.5 µM
